Measured values drawn from the supplement of paper PMC10266784 for this set.

B1: library; numbered along this chain (parent)
chain: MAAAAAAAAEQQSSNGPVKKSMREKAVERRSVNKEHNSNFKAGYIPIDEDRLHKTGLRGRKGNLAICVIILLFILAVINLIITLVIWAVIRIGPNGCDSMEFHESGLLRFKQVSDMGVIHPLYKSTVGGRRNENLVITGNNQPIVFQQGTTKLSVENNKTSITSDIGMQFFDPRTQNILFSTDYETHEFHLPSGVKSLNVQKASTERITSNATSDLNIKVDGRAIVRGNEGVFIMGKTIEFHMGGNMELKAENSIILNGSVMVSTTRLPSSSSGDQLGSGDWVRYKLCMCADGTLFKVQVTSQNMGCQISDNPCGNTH

Variants of: B1
Assay: SGCB cell-surface expression functional score (HA stain, bin4 vs bin1, normalised to synonymous) (log10 ratio); higher = more cell-surface SGCB (functional)
Some variants, each annotated with its measured SGCB cell-surface expression functional score (log10).
Enter a number only.

// known answers, use as guide
K286P 0.02
S254V 0.02

Task: Using the record for G149A , state its measured SGCB cell-surface expression functional score (log10).
Result: -0.43

Task: Report SGCB cell-surface expression functional score (log10), nothing else, for this variant: G149T
Result: -0.75

Task: Please give measured SGCB cell-surface expression functional score (log10) of the following entry: N304V
Result: -1.11

Task: Please report the measured SGCB cell-surface expression functional score (log10) for K25G
Result: -0.06

Task: Please give the documented SGCB cell-surface expression functional score (log10) of E188L
Result: -1.16
